- SYSTEM_UNDER_TEST: Potassium voltage-gated channel subfamily A member 3 (Homo sapiens, UniProt P22001)
- Sequence (P22001 whole entry): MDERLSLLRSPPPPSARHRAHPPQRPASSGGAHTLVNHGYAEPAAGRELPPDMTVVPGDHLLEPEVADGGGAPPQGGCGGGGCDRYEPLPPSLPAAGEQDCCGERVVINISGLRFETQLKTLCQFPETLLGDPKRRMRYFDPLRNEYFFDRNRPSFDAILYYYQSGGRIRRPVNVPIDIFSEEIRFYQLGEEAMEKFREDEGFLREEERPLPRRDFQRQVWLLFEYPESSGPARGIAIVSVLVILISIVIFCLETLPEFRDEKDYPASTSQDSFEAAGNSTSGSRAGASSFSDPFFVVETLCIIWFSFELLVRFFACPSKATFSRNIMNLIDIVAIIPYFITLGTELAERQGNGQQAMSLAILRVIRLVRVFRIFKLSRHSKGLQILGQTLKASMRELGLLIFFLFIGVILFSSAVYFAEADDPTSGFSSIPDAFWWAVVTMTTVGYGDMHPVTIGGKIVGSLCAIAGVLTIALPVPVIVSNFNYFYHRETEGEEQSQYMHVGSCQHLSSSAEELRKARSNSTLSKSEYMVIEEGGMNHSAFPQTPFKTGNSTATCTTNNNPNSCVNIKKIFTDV
- TEST_SUMMARY: Inhibition of [86Rb+] efflux from CHO cells stably transfected with Kv1.3 channel
- Format: functional, cell-based
pIC50: −log10 of the molar value.
MEASURE: pIC50

Some compounds with recorded pIC50:
[
  {
    "SMILES_STRING": "C=CCNC(=O)O[C@H]1CC[C@](CNC(=O)c2ccccc2OC)(c2ccccc2)CC1",
    "SYSTEM_UNDER_TEST": "Potassium voltage-gated channel subfamily A member 3 (Homo sapiens, UniProt P22001)",
    "pIC50": 6.89
  },
  {
    "SMILES_STRING": "CCCNC(=O)O[C@H]1CC[C@@](CNC(=O)c2ccccc2OC)(c2ccccc2)CC1",
    "SYSTEM_UNDER_TEST": "Potassium voltage-gated channel subfamily A member 3 (Homo sapiens, UniProt P22001)",
    "pIC50": 7.30
  },
  {
    "SMILES_STRING": "C=CCNC(=O)N[C@H]1CC[C@](CNC(=O)c2ccccc2OC)(c2ccccc2)CC1",
    "SYSTEM_UNDER_TEST": "Potassium voltage-gated channel subfamily A member 3 (Homo sapiens, UniProt P22001)",
    "pIC50": 6.85
  }
]

[1] C=CCNC(=O)N[C@H]1CC[C@@](CNC(=O)c2ccccc2OC)(c2ccccc2)CC1
[2] C=CCOC(=O)N[C@H]1CC[C@](CNC(=O)c2ccccc2OC)(c2ccccc2)CC1
I would appreciate it if you could say which entry, 1 or 2 , has the lower pIC50 value. Respond with the label that goes with your answer.
1

Value source: ChEMBL document CHEMBL1136659
